These measurements were taken from the supplement of paper PMC5919970.

- Test system: TYKNU
- Run description: fractional viability relative to vehicle; TYKNU is a high-grade serous ovarian cancer line; higher = less growth inhibition
- Measurement parameters: 10uM; 72 h; genotype: DNM1L knockout (sgDNM1L #1)
Over roughly 2,000 compounds, “fractional viability relative to vehicle” has its median near 0.91; the lowest 2% begin near 0.045. For the sample, the lowest values were picked, then their nearest neighbours and some compounds at random.
Kindly supply the reported fractional viability values for the records listed here.
One number for each entry.

Cc1ccc(S(=O)(=O)/C=C/C#N)cc1 : 0.0225

Hi! Can you tell me fractional viability for each of these compounds?
1. O=C(/C=C/C=C/c1ccc2c(c1)OCO2)N1CCCCC1
2. CCOc1cc(N2CCC(O)CC2)ccc1Nc1ncc2c(n1)N(C)c1ccccc1C(=O)N2C
3. O=C(Nc1ccccc1)N1CCN(c2nc(-c3ccccc3)ns2)CC1
4. COc1cc(N2CCC(N)CC2)ccc1Nc1ncc(Cl)c(-c2c[nH]c3ccccc23)n1

Found:
1: 0.915; 2: 0.539; 3: 0.828; 4: 0.0459
